# Major peak listing for each entry below
- PROTOCOL: Test 3 stability data under −20° C. for 6 months (liquid chromatography)
- Format: physicochemical
- STATED_CONDITIONS: 3 months, in % (unit assumed)
Write the number on its own, no unit after it.

{"columns": ["MOLECULE", "ENDPOINT", "QUANTITATIVE_RESULT"],
 "data": [
  ["CCCCCCOC(=O)/N=C(/N)c1ccc(NCc2nc3cc(C(=O)N(CCC(=O)OCC)c4ccccn4)ccc3n2C)cc1.CS(=O)(=O)O [Crystal form N]", "Major peak", 99.734],
  ["CCCCCCOC(=O)/N=C(/N)c1ccc(NCc2nc3cc(C(=O)N(CCC(=O)OCC)c4ccccn4)ccc3n2C)cc1.CS(=O)(=O)O [Crystal form II]", "Major peak", 99.634],
  ["CCCCCCOC(=O)/N=C(/N)c1ccc(NCc2nc3cc(C(=O)N(CCC(=O)OCC)c4ccccn4)ccc3n2C)cc1.CS(=O)(=O)O [Semihydrate crystal form]", "Major peak", 99.836],
  ["CCCCCCOC(=O)/N=C(/N)c1ccc(NCc2nc3cc(C(=O)N(CCC(=O)OCC)c4ccccn4)ccc3n2C)cc1.CS(=O)(=O)O [Crystal form M]", "Major peak", 99.737]
]}

Would you kindly look at the next entry?
Report Major peak for CCCCCCOC(=O)/N=C(/N)c1ccc(NCc2nc3cc(C(=O)N(CCC(=O)OCC)c4ccccn4)ccc3n2C)cc1.CS(=O)(=O)O [Crystal form I] please.
99.690

---

- PROTOCOL: Test 3 stability data under −20° C. for 6 months (liquid chromatography)
- Format: physicochemical
- STATED_CONDITIONS: 6 months, in % (unit assumed)
- Description: Liquid chromatography test conditions are: chromatographic column is Merck Purospher®STAR RP-18 endcapped 250×4.6 mm, 5 μm; mobile phase A: acetonitrile, mobile phase B: 4 ml phosphoric acid added in 1 L water, the pH is adjusted to 3.5 by triethylamine; detecting wavelength: 310 nm; flow rate: 1 ml/min; sample load: 10 μl; column temperature: 30° C., liquid chromatography conditions are shown in table 4: […]
ENDPOINT: Major peak
I only need the number, thanks.

{"columns": ["COMPOUND", "Major peak"],
 "data": [
  ["CCCCCCOC(=O)/N=C(/N)c1ccc(NCc2nc3cc(C(=O)N(CCC(=O)OCC)c4ccccn4)ccc3n2C)cc1.CS(=O)(=O)O [Crystal form M]", 99.737],
  ["CCCCCCOC(=O)/N=C(/N)c1ccc(NCc2nc3cc(C(=O)N(CCC(=O)OCC)c4ccccn4)ccc3n2C)cc1.CS(=O)(=O)O [Crystal form N]", 99.733],
  ["CCCCCCOC(=O)/N=C(/N)c1ccc(NCc2nc3cc(C(=O)N(CCC(=O)OCC)c4ccccn4)ccc3n2C)cc1.CS(=O)(=O)O [Semihydrate crystal form]", 99.836]
]}

For the compound CCCCCCOC(=O)/N=C(/N)c1ccc(NCc2nc3cc(C(=O)N(CCC(=O)OCC)c4ccccn4)ccc3n2C)cc1.CS(=O)(=O)O [Crystal form II] , what Major peak is on record?
99.632

Consider the compound shown here: CCCCCCOC(=O)/N=C(/N)c1ccc(NCc2nc3cc(C(=O)N(CCC(=O)OCC)c4ccccn4)ccc3n2C)cc1.CS(=O)(=O)O [Crystal form I] What is its recorded Major peak?
99.692

---

# Major peak listing for each entry below
- PROTOCOL: Test 1 stability data under 25° C. for 6 months (liquid chromatography)
- Assay type: physicochemical
- STATED_CONDITIONS: 25° C., 3 months; in % (unit assumed)

{"columns": ["MOLECULE", "Major peak"],
 "data": [
  ["CCCCCCOC(=O)/N=C(/N)c1ccc(NCc2nc3cc(C(=O)N(CCC(=O)OCC)c4ccccn4)ccc3n2C)cc1.CS(=O)(=O)O [Crystal form M]", 99.595]
]}

# lookup: Major peak of CCCCCCOC(=O)/N=C(/N)c1ccc(NCc2nc3cc(C(=O)N(CCC(=O)OCC)c4ccccn4)ccc3n2C)cc1.CS(=O)(=O)O [Semihydrate crystal form]
99.587

Please look up its Major peak: CCCCCCOC(=O)/N=C(/N)c1ccc(NCc2nc3cc(C(=O)N(CCC(=O)OCC)c4ccccn4)ccc3n2C)cc1.CS(=O)(=O)O [Crystal form N]
99.601

Fill blank: measured Major peak of the molecule CCCCCCOC(=O)/N=C(/N)c1ccc(NCc2nc3cc(C(=O)N(CCC(=O)OCC)c4ccccn4)ccc3n2C)cc1.CS(=O)(=O)O [Crystal form I] is ____.
99.468

# query: Major peak of entry CCCCCCOC(=O)/N=C(/N)c1ccc(NCc2nc3cc(C(=O)N(CCC(=O)OCC)c4ccccn4)ccc3n2C)cc1.CS(=O)(=O)O [Crystal form II]
99.290

---

Here, each record is paired with measured Major peak data.
- PROTOCOL: Test 2 stability data under 5° C. for 6 months (liquid chromatography)
- Assay type: physicochemical
- STATED_CONDITIONS: 5° C., 6 months; in % (unit assumed)
Respond with the number and no other words.

Example entries and their recorded answers appear below.
{"columns": ["COMPOUND", "Major peak"],
 "data": [
  ["CCCCCCOC(=O)/N=C(/N)c1ccc(NCc2nc3cc(C(=O)N(CCC(=O)OCC)c4ccccn4)ccc3n2C)cc1.CS(=O)(=O)O [Crystal form N]", 99.649],
  ["CCCCCCOC(=O)/N=C(/N)c1ccc(NCc2nc3cc(C(=O)N(CCC(=O)OCC)c4ccccn4)ccc3n2C)cc1.CS(=O)(=O)O [Crystal form M]", 99.648],
  ["CCCCCCOC(=O)/N=C(/N)c1ccc(NCc2nc3cc(C(=O)N(CCC(=O)OCC)c4ccccn4)ccc3n2C)cc1.CS(=O)(=O)O [Semihydrate crystal form]", 99.832],
  ["CCCCCCOC(=O)/N=C(/N)c1ccc(NCc2nc3cc(C(=O)N(CCC(=O)OCC)c4ccccn4)ccc3n2C)cc1.CS(=O)(=O)O [Crystal form I]", 99.643]
]}

What does the data say about its Major peak? Entry: CCCCCCOC(=O)/N=C(/N)c1ccc(NCc2nc3cc(C(=O)N(CCC(=O)OCC)c4ccccn4)ccc3n2C)cc1.CS(=O)(=O)O [Crystal form II]
99.592

---

The compounds listed here are annotated with their Major peak.
- PROTOCOL: Test 3 stability data under −20° C. for 6 months (liquid chromatography)
- Assay type: physicochemical
- STATED_CONDITIONS: 4 months, in % (unit assumed)

Worked examples, 3 compounds total:
{"columns": ["COMPOUND", "ENDPOINT", "RESULT"],
 "data": [
  ["CCCCCCOC(=O)/N=C(/N)c1ccc(NCc2nc3cc(C(=O)N(CCC(=O)OCC)c4ccccn4)ccc3n2C)cc1.CS(=O)(=O)O [Semihydrate crystal form]", "Major peak", 99.839],
  ["CCCCCCOC(=O)/N=C(/N)c1ccc(NCc2nc3cc(C(=O)N(CCC(=O)OCC)c4ccccn4)ccc3n2C)cc1.CS(=O)(=O)O [Crystal form M]", "Major peak", 99.737],
  ["CCCCCCOC(=O)/N=C(/N)c1ccc(NCc2nc3cc(C(=O)N(CCC(=O)OCC)c4ccccn4)ccc3n2C)cc1.CS(=O)(=O)O [Crystal form I]", "Major peak", 99.692]
]}

# input compound: CCCCCCOC(=O)/N=C(/N)c1ccc(NCc2nc3cc(C(=O)N(CCC(=O)OCC)c4ccccn4)ccc3n2C)cc1.CS(=O)(=O)O [Crystal form N] ; wanted: its Major peak
99.733

Could you share which Major peak value was measured for CCCCCCOC(=O)/N=C(/N)c1ccc(NCc2nc3cc(C(=O)N(CCC(=O)OCC)c4ccccn4)ccc3n2C)cc1.CS(=O)(=O)O [Crystal form II] ?
99.630

---

- PROTOCOL: Test 2 stability data under 5° C. for 6 months (liquid chromatography)
- Format: physicochemical
- STATED_CONDITIONS: 5° C., 2 months; in % (unit assumed)
Quick list: Major peak per entry.
Response field accepts a number only; no unit should be typed.

{"columns": ["MOLECULE", "QUANTITATIVE_RESULT"],
 "data": [
  ["CCCCCCOC(=O)/N=C(/N)c1ccc(NCc2nc3cc(C(=O)N(CCC(=O)OCC)c4ccccn4)ccc3n2C)cc1.CS(=O)(=O)O [Crystal form II]", 99.643],
  ["CCCCCCOC(=O)/N=C(/N)c1ccc(NCc2nc3cc(C(=O)N(CCC(=O)OCC)c4ccccn4)ccc3n2C)cc1.CS(=O)(=O)O [Crystal form I]", 99.651],
  ["CCCCCCOC(=O)/N=C(/N)c1ccc(NCc2nc3cc(C(=O)N(CCC(=O)OCC)c4ccccn4)ccc3n2C)cc1.CS(=O)(=O)O [Crystal form M]", 99.648],
  ["CCCCCCOC(=O)/N=C(/N)c1ccc(NCc2nc3cc(C(=O)N(CCC(=O)OCC)c4ccccn4)ccc3n2C)cc1.CS(=O)(=O)O [Semihydrate crystal form]", 99.830]
]}

Data request, read-out Major peak, for CCCCCCOC(=O)/N=C(/N)c1ccc(NCc2nc3cc(C(=O)N(CCC(=O)OCC)c4ccccn4)ccc3n2C)cc1.CS(=O)(=O)O [Crystal form N]
99.655
